Molecular target: PCSK9
Sequence (Q8NBP7 31-152, chain 1 of 2): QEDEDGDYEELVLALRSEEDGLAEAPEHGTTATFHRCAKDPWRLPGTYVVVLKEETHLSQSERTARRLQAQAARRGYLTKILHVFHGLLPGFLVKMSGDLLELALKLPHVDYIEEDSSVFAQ
Sequence (Q8NBP7 153-692, chain 2 of 2): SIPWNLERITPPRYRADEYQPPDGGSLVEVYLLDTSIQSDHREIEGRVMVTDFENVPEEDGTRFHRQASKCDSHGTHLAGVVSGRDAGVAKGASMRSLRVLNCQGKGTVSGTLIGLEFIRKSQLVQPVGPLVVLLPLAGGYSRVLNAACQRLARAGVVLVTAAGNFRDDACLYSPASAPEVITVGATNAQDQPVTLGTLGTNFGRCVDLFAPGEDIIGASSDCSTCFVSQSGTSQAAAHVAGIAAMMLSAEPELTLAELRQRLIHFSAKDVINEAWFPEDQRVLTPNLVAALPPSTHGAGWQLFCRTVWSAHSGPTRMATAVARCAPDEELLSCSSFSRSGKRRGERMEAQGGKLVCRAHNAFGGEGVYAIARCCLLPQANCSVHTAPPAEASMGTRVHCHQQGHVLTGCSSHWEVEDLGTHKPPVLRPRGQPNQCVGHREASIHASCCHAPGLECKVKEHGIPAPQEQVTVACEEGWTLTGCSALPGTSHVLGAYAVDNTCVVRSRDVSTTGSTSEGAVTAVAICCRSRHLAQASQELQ
Assay: Biacore SPR
What pKd was measured for each of the following?
Hey, just a heads up that pKd is the negative log base 10 of the concentration in molar.

## Input Recorded pKd for 1B20 variant H1 (antibody, part only; not given: light chain, probably the common parent VL, V domains shown, part only) VH: QVQLVQSGAEVKKPGESLKISCKGSGYSFTDYYIAWVRQMPGKGLEWMGIIYPGDSYTRYNPRFQGQVTISADKSISTAYLQWSSLKASDTAMYYCARDYWSKPLSDIWGQGTLVTVSS , please?
## Output 8.70

## Input Try the binder 1B20 variant C8 (antibody, part only; not given: light chain, V domains shown, part only) VH: QVQLVQSGAEVKKPGESLKISCKGSGYSFTNYYIAWVRQMPGKGLEWMGMIYPGDSYTSYSHRFQGQVTISADKSISTAYLQWSSLKASDTAMYYCARDHWYRPYFDIWGQGTLVTVSS
## Output 8.43

## Input Moving on to 1B20 variant F7 (antibody, part only; not given: light chain, V domains shown, part only) VH: QVQLVQSGAEVKKPGESLKISCKGSGYSFTNYYIAWVRQMPGKGLEWMGIIYPGDSYTHYNPKFQGQVTISADKSISTAYLQWSSLKASDTAMYYCARDHWSRPFSDVWGQGTLVTVSS
## Output 8.90

## Input And 1B20 variant H8 (antibody, part only; not given: light chain, probably the common parent VL, V domains shown, part only) VH: QVQLVQSGAEVKKPGESLKISCKGSGYSFTDYYISWVRQMPGKGLEWMGMIYPGDSYTHYSQNFQGQVTISADKSISTAYLQWSSLKASDTAMYYCARDHWSRPFFDVWGQGTLVTVSS ?
## Output 8.87

## Input And what about the binder 1B20 variant B3 (antibody, part only; not given: light chain, probably the common parent VL, V domains shown, part only) VH: QVQLVQSGAEVKKPGESLKISCKGSGYSFTNYYISWVRQMPGKGLEWMGMIYPGDSYTSYNPKFQGQVTISADKSISTAYLQWSSLKASDTAMYYCARDHWSKPYFDIWGQGTLVTVSS ?
## Output 8.92

## Input // query: 1B20 variant D8 (antibody, part only; not given: light chain, V domains shown, part only) VH: QVQLVQSGAEVKKPGESLKISCKGSGYSFTDYYISWVRQMPGKGLEWMGMIYPGDSYTHYSQSFQGQVTISADKSISTAYLQWSSLKASDTAMYYCARDHWYRPLFDIWGQGTLVTVSS
## Output 8.49

## Input Try the binder 1B20 variant A4 (antibody, part only; not given: light chain, probably the common parent VL, V domains shown, part only) VH: QVQLVQSGAEVKKPGESLKISCKGSGYSFTDYYISWVRQMPGKGLEWMGSIYPGDSYTHYSHKFQGQVTISADKSISTAYLQWSSLKASDTAIYYCARDHWSRPFFDVWGQGTLVTVSS
## Output 8.67

## Input Same thing, different binder: 1B20 variant D3 (antibody, part only; not given: light chain, V domains shown, part only) VH: QVQLVQSGAEVKKPGESLKISCKGSGYSFTDYYITWVRQMPGKGLEWMGMIYPGDSYTRYSPKFQGQVTISADKSISTAYLQWSSLKASDTAMYYCARDYWSKPFFDVWGQGTLVTVSS
## Output 8.57

## Input Moving on to the next binder: 1B20 variant F2 (antibody, part only; not given: light chain, V domains shown, part only) VH: QVQLVQSGAEVKKPGESLKISCKGSGYSFTNYYIAWVRQMPGKGLEWMGVIYPGDSYTRYNPKFQGQVTISADKSISTAYLQWSSLKASDTAMYYCARDYWSRPYFDIWGQGTLVTVSS
## Output 9.00

## Input Let us now turn to 1B20 variant F1 (antibody, part only; not given: light chain, probably the common parent VL, V domains shown, part only) VH: QVQLVQSGAEVKKPGESLKISCKGSGYSFTDYYISWVRQMPGKGLEWMGLIYPGDSYTNYSPKFQGQVTISADKSISTAYLQWSSLKASDTAMYYCARDHWSKPLSDVWGQGTLVTVSS
## Output 8.46

## Input Here is the next binder: 1B20 variant H5 (antibody, part only; not given: light chain, probably the common parent VL, V domains shown, part only) VH: QVQLVQSGAEVKKPGESLKISCKGSGYSFTDYYISWVRQMPGKGLEWMGIIYPGDSYTSYSPRFQGQVTISADKSISTAYLQWSSLKASDTAMYYCARDYWSRPLFDVWGQGTLVTVSS
## Output 8.62

## Input Now the same for 1B20 variant F6 (antibody, part only; not given: light chain, probably the common parent VL, V domains shown, part only) VH: QVQLVQSGAEVKKPGESLKISCKGSGYSFTNYYISWVRQMPGKGLEWMGLIYPGDSYTHYNPSFQGQVTISADKSISTAYLQWSSLKASDTAMYYCARDHWYKPFSDIWGQGTLVTVSS
## Output 8.57

## Input Also 1B20 variant B2 (antibody, part only; not given: light chain, probably the common parent VL, V domains shown, part only) VH: QVQLVQSGAEVKKPGESLKISCKGSGYSFTNYYISWVRQMPGKGLEWMGLIYPGDSYTNYNPNFQGQVTISADKSISTAYLQWSSLKASDTAMYYCARDHYSTPFFDVWGQGTLVTVSS , if possible.
## Output 8.66

## Input Would you mind doing 1B20 variant G6 (antibody, part only; not given: light chain, probably the common parent VL, V domains shown, part only) VH: QVQLVQSGAEVKKPGESLKISCKGSGYSFTDYYINWVRQMPGKGLEWMGMIYPGDSYTNYNPKFQGQVTISADKSISTAYLQWSSLKASDTAIYYCARDHWSRPFSDVWGQGTLVTVSS as well?
## Output 8.66

## Input Next binder: 1B20 variant F5 (antibody, part only; not given: light chain, probably the common parent VL, V domains shown, part only) VH: QVQLVQSGAEVKKPGESLKISCKGSGYSFTDYYITWVRQMPGKGLEWMGMIYPGDSYTNYRHNFQGQVTISADKSISTAYLQWSSLKASDTAMYYCARDYWSRPYFDIWGQGTLVTVSS
## Output 8.62
